Reference source: the NIST ThermoML archive (doi:10.1021/je900888e)

Test: mn = molality of the nth substance listed, in mol/kg
Details: 313.15 K; 101 kPa; Liquid; m2 = 0
readout kind: mass density (kg/m3)

What mass density value was documented for this compound, CC(C)=O [acetone] + CCCC[P+](CCCC)(CCCC)CCCC.[Br-] ? 766.799

Now consider CCCCO [butan-1-ol] + CCCC[P+](CCCC)(CCCC)CCCC.[Br-] . 794.037

Now consider CCO [ethanol] + CCCC[P+](CCCC)(CCCC)CCCC.[Br-] . 772

Now consider CC#N [acetonitrile] + CCCC[P+](CCCC)(CCCC)CCCC.[Br-] . 760.119

Now consider CCCO [propan-1-ol] + CCCC[P+](CCCC)(CCCC)CCCC.[Br-] . 787.227

---

Test: mn = molality of the nth substance listed, in mol/kg
Conditions: 323.15 K; 101 kPa; Liquid; m2 = 0
readout kind: mass density (kg/m3)

What mass density value was documented for this compound, CCCCO [butan-1-ol] + CCCC[P+](CCCC)(CCCC)CCCC.[Br-] ? 786.081

Now consider CCCO [propan-1-ol] + CCCC[P+](CCCC)(CCCC)CCCC.[Br-] . 778.86

Now consider CC#N [acetonitrile] + CCCC[P+](CCCC)(CCCC)CCCC.[Br-] . 749.031

Now consider CCO [ethanol] + CCCC[P+](CCCC)(CCCC)CCCC.[Br-] . 763.084
